target: T1, Anti-CD28 Fab (SEQ ID NOs: 696, 697); test: phage binding ELISA; clonal phage supernatant on biotinylated anti-CD28 Fab captured on neutravidin plate; anti-M13 HRP detection
T1 construct: Biotinylated and captured on neutravidin coated plates in the phage ELISA
T1 sequence (VH, as listed by the source, chain 1 of 2): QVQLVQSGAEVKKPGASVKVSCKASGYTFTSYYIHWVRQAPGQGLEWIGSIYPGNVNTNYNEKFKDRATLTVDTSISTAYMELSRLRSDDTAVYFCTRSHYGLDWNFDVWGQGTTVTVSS
T1 sequence (VL, as listed by the source, chain 2 of 2): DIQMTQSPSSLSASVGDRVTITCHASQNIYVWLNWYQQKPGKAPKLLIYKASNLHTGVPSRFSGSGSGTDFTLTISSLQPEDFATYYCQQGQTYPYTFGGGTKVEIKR
Experimental readout: Phage binding ELISA, Anti-CD28 Fab signal
// return just the number, without any unit appended

Task item: Name the recorded Phage binding ELISA, Anti-CD28 Fab signal of the item YCDGLASEYMSKCL [Phage-832 (Peptide-87 library sequence, SEQ ID NO: 1148)] in your answer.
Reply: 1.77
